TESTED TARGET: CCK2R (Rattus norvegicus, UniProt P30553)
Construct: host or cells: AR42J cells
Sequence (P30553 whole entry): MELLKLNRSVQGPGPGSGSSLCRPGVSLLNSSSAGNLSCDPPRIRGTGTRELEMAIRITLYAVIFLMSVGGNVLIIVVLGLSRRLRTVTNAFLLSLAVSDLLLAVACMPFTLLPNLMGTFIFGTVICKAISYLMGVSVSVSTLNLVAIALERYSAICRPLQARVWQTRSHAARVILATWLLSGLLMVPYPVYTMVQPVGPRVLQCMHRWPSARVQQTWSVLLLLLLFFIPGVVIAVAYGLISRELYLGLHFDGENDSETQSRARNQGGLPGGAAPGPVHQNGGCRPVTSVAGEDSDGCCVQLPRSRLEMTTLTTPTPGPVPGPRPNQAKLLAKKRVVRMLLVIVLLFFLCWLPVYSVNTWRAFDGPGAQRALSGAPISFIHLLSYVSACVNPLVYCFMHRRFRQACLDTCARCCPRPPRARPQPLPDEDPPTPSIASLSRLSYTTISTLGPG
ASSAY PROTOCOL: Competitive cell-binding assay on AR42J cells with 125I-C3 as competitive ligand
CONDITION DETAILS: AR42J cells, 125I-C3 competitive ligand, 37° C. 1 h; read-out: CCK2R/IC50
QUANTITY MEASURED: pIC50
On this scale, pIC50 is minus log10 of a concentration expressed in M (mol/L).

Use these answered entries as a reference point.
C[C@@H](O)[C@H](NC(=O)[C@@H]1CSSC[C@H](NC(=O)[C@@H](Cc2ccccc2)NC(=O)COCCOCCNC(=O)COCCOCCNC(=O)COCCOCCNC(=O)[C@H](CCCCNC(=O)c2cccc(NC(=O)N[C@@H]3CN(C4CCCCC4)c4ccccc4N(CC(=O)C(C)(C)C)C3=O)c2)NC(=O)CN2CCN(CC(=O)O)CCN(CC(=O)O)CCN(CC(=O)O)CC2)C(=O)N[C@@H](Cc2ccc(O)cc2)C(=O)N[C@H](Cc2c[nH]c3ccccc23)C(=O)N[C@@H](CCCCN)C(=O)N[C@@H]([C@@H](C)O)C(=O)N1)C(=O)O; 8.00
C[C@@H](O)[C@H](NC(=O)[C@@H]1CSSC[C@H](NC(=O)[C@@H](Cc2ccccc2)NC(=O)COCCOCCNC(=O)[C@H](CCCCNC(=O)c2cccc(NC(=O)N[C@@H]3CN(C4CCCCC4)c4ccccc4N(CC(=O)C(C)(C)C)C3=O)c2)NC(=O)CN2CCN(CC(=O)O)CCN(CC(=O)O)CCN(CC(=O)O)CC2)C(=O)N[C@@H](Cc2ccc(O)cc2)C(=O)N[C@H](Cc2c[nH]c3ccccc23)C(=O)N[C@@H](CCCCN)C(=O)N[C@@H]([C@@H](C)O)C(=O)N1)C(=O)O [Compound I-37, DOTA-K(Z360)-OEG-f[CYwKTC]T-OH]; 8.38

Incoming: Suppose we examine the compound CCCC[C@H](NC(=O)[C@H](Cc1c[nH]c2ccccc12)NC(=O)CNC(=O)[C@H](Cc1ccc(O)cc1)NC(=O)[C@H](C)NC(=O)[C@@H](CCC(=O)O)NC(=O)[C@@H](CCC(=O)O)NC(=O)[C@@H](CCC(=O)O)NC(=O)[C@@H](CCC(=O)O)NC(=O)[C@@H](CCC(=O)O)NC(=O)[C@@H](CCC(=O)O)NC(=O)CN1CCN(CC(=O)O)CCN(CC(=O)O)CCN(CC(=O)O)CC1)C(=O)N[C@@H](CC(=O)O)C(=O)N[C@@H](Cc1ccccc1)C(N)=O [Compound C-2, DOTA-e-e-e-e-e-e-AYGW-Nle-DF-NH2, reference compound] ; what pIC50 value has been reported?
Outgoing: 7.77
